Molecular target: HIV protease (Human immunodeficiency virus type 1 group M subtype B)
Construct: HIV protease is diluted in the assay buffer to a final enzyme concentration of 12.3 nanomolar, based on a molecular weight of 10,780
Assay: HIV protease enzyme assay (fluorescence, substrate 2-Ile-Nle-Phe(p-NO2)-Gln-ArgNH2)
Type: biochemical
Conditions: Table 21; HIV protease enzyme assay; read-out: IC50
reportedEndpoint: IC50 (nM)
State the answer as a number, implicitly in nM.

Illustrative cases are given below, each with its answer.
# itemSmiles, quantityUnit, IC50
measured = [
    ("COc1ccc(S(=O)(=O)N(CC(C)C)C[C@@H](O)[C@H](Cc2ccccc2)NC(=O)c2cccc(N(C)C)c2C)cc1", "nM", 310),
    ("COc1ccc(S(=O)(=O)N(CC(C)C)C[C@@H](O)[C@H](Cc2ccccc2)NC(=O)COc2c(C)cccc2C)cc1", "nM", 3),
]

The reported IC50 of the molecule "CC(C)CN(C[C@@H](O)[C@H](Cc1ccccc1)NC(=O)COc1ccccc1)S(=O)(=O)c1ccc2ncsc2c1" was 3

The reported IC50 of the molecule "CSCCCN(C[C@@H](O)[C@H](Cc1ccccc1)NC(=O)OCc1ccccc1)S(=O)(=O)c1ccccc1" was 45

For record "Cc1c(N)cccc1C(=O)N[C@@H](Cc1ccccc1)[C@H](O)CN(CC(C)C)S(=O)(=O)c1ccc2c(c1)CCO2" the listed IC50 is 7

Reported IC50 ( "COc1ccc(S(=O)(=O)N(CC(C)C)C[C@@H](O)[C@H](Cc2ccccc2)NC(=O)c2cc([N+](=O)[O-])ccc2C)cc1" ) = 21

Lookup result for "COc1ccc(S(=O)(=O)N(CC(C)C)C[C@@H](O)[C@H](Cc2ccccc2)NC(=O)OCc2ccc(O)nc2)cc1" ; measured IC50: 16

Given item "COc1ccc(S(=O)(=O)N(CC(C)C)C[C@@H](O)[C@H](Cc2ccccc2)NC(=O)OCc2ccoc2)cc1" , the value recorded as its IC50 is 2

Notebook: "COc1ccc(S(=O)(=O)N(CC(C)C)C[C@@H](O)[C@H](Cc2ccccc2)NC(=O)COc2ccccc2C)cc1" , IC50 read as 8

###

// pIC50 lookup, one value per entry
Molecular target: HIV protease (Human immunodeficiency virus type 1 group M subtype B, UniProt P04585)
Construct: HIV protease is diluted in the assay buffer to a final enzyme concentration of 12.3 nanomolar, based on a molecular weight of 10,780
Experiment: HIV protease enzyme assay (fluorescence, substrate 2-Ile-Nle-Phe(p-NO2)-Gln-ArgNH2)
Assay type: biochemical
Conditions: Table 21; HIV protease enzyme assay; read-out: IC50
Protocol: The enzyme method is described below. […] The positive control is MVT-101 (Miller, M. et al, Science, 246, 1149 (1989)] The assay conditions are as follows: Assay buffer: 20 mM sodium phosphate, pH 6.4 20% glycerol 1 mM EDTA 1 mM DTT 0.1% CHAPS […] The final concentration of DMSO is 14% and the final concentration of glycerol is 18%. […] The increase in fluorescence is monitored at 4 time points (0, 8, 16 and 24 minutes) at ambient temperature. […]
Interpret pIC50 as the negative base-10 log of the concentration measured in mol/L.

Study these solved cases before continuing.
# molecule, experimentalResult
rows = [
    ("COc1ccc(S(=O)(=O)N(CC(C)C)C[C@@H](O)[C@H](Cc2ccccc2)NC(=O)O[C@H]2CCS(=O)(=O)C2)cc1 [Example 47]", 8.52),
    ("CC(C)CN(C[C@@H](O)[C@H](Cc1ccccc1)NC(=O)O[C@H]1CCS(=O)(=O)C1)S(=O)(=O)c1ccc(O)cc1 [Example 43]", 8.40),
    ("CC(C)CN(C[C@@H](O)[C@H](Cc1ccccc1)NC(=O)OCc1cccnc1)S(=O)(=O)c1ccc(O)cc1 [Example 20]", 8.40),
]

Lab entry: HIV protease (Human immunodeficiency virus type 1 group M subtype B, UniProt P04585) assay, molecule Cc1ccccc1C(=O)N[C@@H](Cc1ccccc1)[C@H](O)CN(CC(C)C)S(=O)(=O)c1ccc(N)cc1 [Example 62] , pIC50 = 7.55

Kindly note: HIV protease (Human immunodeficiency virus type 1 group M subtype B, UniProt P04585), COc1ccc(S(=O)(=O)N(CC(C)C)C[C@@H](O)[C@H](Cc2ccccc2)NC(=O)c2ccc3nc(N)sc3c2)cc1 [Example 76] , pIC50 value reported: 8.30

Entry COc1ccc(S(=O)(=O)N(CC(C)C)C[C@@H](O)[C@H](Cc2ccccc2)NC(=O)c2cccc([N+](=O)[O-])c2C)cc1 [Example 48] , HIV protease (Human immunodeficiency virus type 1 group M subtype B, UniProt P04585) data, pIC50 value: 7.77

Observed pIC50 on HIV protease (Human immunodeficiency virus type 1 group M subtype B, UniProt P04585), entry COc1ccc(S(=O)(=O)N(CC(C)C)C[C@@H](O)[C@H](Cc2ccccc2)NC(=O)OCc2ccc[n+]([O-])c2)cc1 [Example 25] , equals 7.22

Measured pIC50 for this entry COc1ccc(S(=O)(=O)N(CC(C)C)C[C@@H](O)[C@H](Cc2ccccc2)NC(=O)OCc2cccnc2)cc1 [Example 17] on HIV protease (Human immunodeficiency virus type 1 group M subtype B, UniProt P04585): 8.40

###

Biological target: HIV protease (Human immunodeficiency virus type 1 group M subtype B)
Construct: HIV protease is diluted in the assay buffer to a final enzyme concentration of 12.3 nanomolar, based on a molecular weight of 10,780
Experiment: HIV protease enzyme assay (fluorescence, substrate 2-Ile-Nle-Phe(p-NO2)-Gln-ArgNH2)
Format: biochemical
Conditions: Table 18A; HIV protease enzyme assay; read-out: IC50
pIC50: −log10 of the molar value.
Binary classification by pIC50, with 8 as an inclusive lower bound for 1; all other cases are 0.

For this molecule, is measured pIC50 8 or higher? O=C(N[C@@H](Cc1ccccc1)[C@H](O)CN(C1CCCCC1)S(=O)(=O)c1ccccc1)OCc1ccccc1 [Entry 5]
0

Reported pIC50 at or above 8? CCOc1ccc(S(=O)(=O)N(CC(C)C)C[C@@H](O)[C@H](Cc2ccccc2)NC(=O)OCc2ccccc2)cc1 [Entry 12]
0

###

Target: HIV protease (Human immunodeficiency virus type 1 group M subtype B)
Construct: HIV protease is diluted in the assay buffer to a final enzyme concentration of 12.3 nanomolar, based on a molecular weight of 10,780
Experiment: HIV protease enzyme assay (fluorescence, substrate 2-Ile-Nle-Phe(p-NO2)-Gln-ArgNH2)
Format: biochemical
Settings: Table 21; HIV protease enzyme assay; read-out: IC50
reportedEndpoint: pIC50
Reminder that pIC50 means the negative base-10 logarithm of the concentration expressed in mol/L.

# molecule, systemTested, experimentalResult
measured = [
    ("COCCCN(C[C@@H](O)[C@H](Cc1ccccc1)NC(=O)OCc1ccccc1)S(=O)(=O)c1ccccc1", "HIV protease (Human immunodeficiency virus type 1 group M subtype B)", 7.28),
    ("Cc1c(O)cccc1C(=O)N[C@@H](Cc1ccccc1)[C@H](O)CN(CC(C)C)S(=O)(=O)c1ccc(N)cc1", "HIV protease (Human immunodeficiency virus type 1 group M subtype B)", 8.15),
    ("COc1ccc(S(=O)(=O)N(CC(C)C)C[C@@H](O)[C@H](Cc2ccccc2)NC(=O)OCc2cncnc2)cc1", "HIV protease (Human immunodeficiency virus type 1 group M subtype B)", 8.70),
]

# next molecule below
Reported pIC50 for CCC(C)[C@H](NC(=O)CN(C)C)C(=O)N[C@@H](Cc1ccccc1)[C@H](O)CN(CC(C)C)S(=O)(=O)c1ccc(OC)cc1 (stereo partly shown) was 8.52

###

Recorded IC50 (uM) or % inhib: % inhib @ 1 uM values for a group of compounds are listed next.
Molecular target: HIV protease (Human immunodeficiency virus type 1 group M subtype B)
Construct: HIV protease is diluted in the assay buffer to a final enzyme concentration of 12.3 nanomolar, based on a molecular weight of 10,780
Test: HIV protease enzyme assay (fluorescence, substrate 2-Ile-Nle-Phe(p-NO2)-Gln-ArgNH2)
Type: biochemical
Details: Table 19B; @ 1 uM
Record the value in %, omitting the unit from your answer.

# compound, quantityUnit, experimentalResult
measured = [
    ("CC(C)CN(C[C@@H](O)[C@H](Cc1ccccc1)NC(=O)OCc1ccccc1)S(C)(=O)=O", "%", 31),
    ("CC(C)CCN(C[C@@H](O)[C@H](Cc1ccccc1)NC(=O)OCc1ccccc1)S(=O)(=O)C(F)(F)F", "%", 42),
    ("CC(C)CCN(C[C@@H](O)[C@H](Cc1ccccc1)NC(=O)C(NC(=O)CN(C)C)C(C)(C)C)S(C)(=O)=O (some centres unmarked)", "%", 38),
    ("CC(C)CCN(C[C@@H](O)[C@H](Cc1ccccc1)NC(=O)OCc1ccccc1)S(C)(=O)=O", "%", 24),
]

Let me check: "CC(C)CCN(C[C@@H](O)[C@H](Cc1ccccc1)NC(=O)OCc1ccccc1)S(=O)(=O)CCl" , system HIV protease (Human immunodeficiency virus type 1 group M subtype B), measured IC50 (uM) or % inhib: % inhib @ 1 uM is 39

Numbers sourced from patent USRE43802E1.
